// reported pull-down binding Z-score for each item listed
# Tested on: TO-N3 (biotin conjugate)
# assay.protocol: pull-down binding Z-score (relative to library population); higher = stronger binding
# protocol.conditions: RNA library: Library-2

Ask: Bench note: what pull-down binding Z-score did UCCACCCUGGUCCAGGUCCACAGCAGUGGA [hsa-mir-4644] show?
Result: 0.441

Ask: Bench note: what pull-down binding Z-score did UCCCCUAGCGCGCCUUCUGGAGA [hsa-mir-3188] show?
Result: -0.0603

Ask: Bench note: what pull-down binding Z-score did `UCAGCUGGUUUUCCAUUUAAUAAAUGGGGUAAGGCUAGA` show?
Result: -0.355

Ask: Bench note: what pull-down binding Z-score did AAGUGCUUUUGUUAAUUUAAAACAAUUACCAUUU [SHAPE_invitro_SARS-CoV-2_Motif_354] show?
Result: -0.977

Ask: Bench note: what pull-down binding Z-score did `AAGAGAAAGUCAACAUCAAUAUUGUUGGUGACUUUAAACUU` show?
Result: 0.557

Ask: Bench note: what pull-down binding Z-score did GGAUAGAAACUAUUAUUCUAUUC [hsa-mir-664a] show?
Result: -0.784
